molecular target: HLA-B7 (B*0702) (Homo sapiens, UniProt P01889); assay: HLA-B7 (B*0702) peptide binding, competition with radiolabeled SS 5-13a (L7→Y) peptide; conditions: purified HLA-B7
Ends that are not written are not given here.
parameter: IC50 (µM)

INSERT INTO results (residues, parameter, units_of_measure, value_observed) VALUES
  ('VPISHLEIL [MAGE2.170E7]', 'IC50', 'µM', 0.186);

(A) VPISHLMIL [MAGE2.170M7]
(B) VPISHLGIL [MAGE2.170G7]
Lab note: record which item had the higher IC50, A or B . Returns: label corresponding to the selected item.
B
